Tested on: LPA-induced MCP-1 in NRK-49F cells
Assay Explanation: LPA-induced MCP-1 AlphaLISA assay
Format: cell-based
Measurement Parameters: Rattus norvegicus, final LPA 10 μM, 7 hours, read-out: Maximum Inhibition
# satisfied = Emax below 70% (exclusive); not satisfied = Emax at/above 70%

Compound: COc1cc(C(=O)N(CCCCC(=O)NS(C)(=O)=O)CCCc2ccccc2)cc(OC)c1C
Target: LPA-induced MCP-1 in NRK-49F cells
Class: not satisfied
//
Compound: COc1ccc(C2(C(=O)N(CCCCC(=O)O)CCCc3ccccc3)CC(=O)C2)cc1
Target: LPA-induced MCP-1 in NRK-49F cells
Class: satisfied
//
Compound: COc1cc(OC)c(F)c(C(=O)N(CCCCC(=O)O)CCCc2ccccc2)c1
Target: LPA-induced MCP-1 in NRK-49F cells
Class: not satisfied
//
Compound: COc1cc(C(=O)N(CCCCC(=O)O)CCCc2ccc(C)s2)cc(OC)c1C
Target: LPA-induced MCP-1 in NRK-49F cells
Class: not satisfied
//
Compound: COc1cc(C(=O)N(CCCCC(=O)O)Cc2ccccc2)cc(OC)c1C
Target: LPA-induced MCP-1 in NRK-49F cells
Class: satisfied
//
Compound: COc1cc(C(=O)N(CCCCC(=O)NS(=O)(=O)c2cccnc2)CCCc2ccccc2)cc(OC)c1C
Target: LPA-induced MCP-1 in NRK-49F cells
Class: not satisfied
//
Compound: COc1cc(C(=O)N(CCCc2ccc(F)cc2F)CCOCC(=O)O)cc(OC)c1C
Target: LPA-induced MCP-1 in NRK-49F cells
Class: not satisfied
//
Compound: COc1cc(C(=O)N(CCCc2ccccc2)CCC(=O)O)cc(OC)c1C
Target: LPA-induced MCP-1 in NRK-49F cells
Class: satisfied
//
Compound: COc1cc(C(=O)N(CCCCC(=O)O)CCCc2c(F)cccc2F)cc(OC)c1C
Target: LPA-induced MCP-1 in NRK-49F cells
Class: not satisfied
//
Compound: COc1cc(C(=O)N(CCCc2ccccc2)CCCC(C)C(=O)O)cc(OC)c1C (centres unmarked)
Target: LPA-induced MCP-1 in NRK-49F cells
Class: not satisfied
//
Compound: COc1cc(C(=O)N(CCCc2ccccc2)CCCC(C)C(=O)NS(C)(=O)=O)cc(OC)c1C (centres unmarked)
Target: LPA-induced MCP-1 in NRK-49F cells
Class: not satisfied
//
Compound: COc1cc(C(=O)N(CCCc2ccc(C)o2)CCCC(C)(O)C(=O)O)cc(OC)c1C (centres unmarked)
Target: LPA-induced MCP-1 in NRK-49F cells
Class: satisfied
//
Compound: COc1cc(C(=O)N(CCCCC(=O)O)CCCc2ccccc2)ccc1F
Target: LPA-induced MCP-1 in NRK-49F cells
Class: satisfied
//
Compound: COc1ccc(C2(C(=O)N(CCCc3ccccc3)CCSCC(=O)O)CC2)cc1
Target: LPA-induced MCP-1 in NRK-49F cells
Class: satisfied
